# assayed_system: UniProt P51449
# Sequence (P51449 269-508 limits assumed): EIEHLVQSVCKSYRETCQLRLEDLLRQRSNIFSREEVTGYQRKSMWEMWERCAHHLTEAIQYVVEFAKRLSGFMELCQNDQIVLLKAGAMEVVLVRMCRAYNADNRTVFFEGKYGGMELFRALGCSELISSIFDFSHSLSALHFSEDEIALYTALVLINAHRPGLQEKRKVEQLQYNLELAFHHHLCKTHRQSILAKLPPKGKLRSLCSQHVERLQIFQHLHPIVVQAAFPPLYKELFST
measured_metric: IC50

The cases that follow already have their IC50 on record.
State its IC50 for this compound: CCS(=O)(=O)c1ccc(CC(=O)Nc2ccc(C(=O)C(C)(C)c3nc(C)c(C)o3)nc2)cc1 [Compound I-56] 10 to 50 nM

State its IC50 for this compound: CCS(=O)(=O)c1ccc(CC(=O)Nc2ccc(C(=O)C(C)(C)c3cc(Cl)cc(C#N)c3)nc2)cc1 [Compound I-27] 1 to 10 nM

State its IC50 for this compound: CCS(=O)(=O)c1ccc(CC(=O)Nc2ccc(C(=O)C(C)(C)c3cc(C#N)ccn3)nc2)cc1 [Compound I-40] 1 to 10 nM

State its IC50 for this compound: CCS(=O)(=O)c1ccc(CC(=O)Nc2ccc(C(=O)C(C)(C)c3cccc(C)n3)nc2)cc1 [Compound I-57] 1 to 10 nM

State its IC50 for this compound: CCS(=O)(=O)c1ccc(CC(=O)Nc2ccc(C(=O)C(C)(C)c3ccc(F)c(Br)c3)nc2)cc1 [Compound I-15] 1 to 10 nM

Here's the next entry for you.
State its IC50 for this compound: CCS(=O)(=O)c1ccc(CC(=O)Nc2ccc(C(=O)C(C)(C)c3ccc(C(F)(F)F)cn3)nc2)cc1 [Compound I-25] 1 to 10 nM

Reference source: patent US20240317686A1
